ASSAY_NOTES: Cmax in Sprague-Dawley rat at 3 mg/kg, ip
Assay type: ADME, organism-based
Parameters: dose 3 mg/kg, route intraperitoneal
CONDITION_CONTEXT: in vivo
ASSAY_METRIC: Cmax (ng/mL)

molecule="C(=N\\OC1CN2CCC1CC2)/c1ccccc1OCc1ccccc1 (stereo unspecified)" assay_metric=Cmax assay_result=524

----------
ASSAY_NOTES: Cmax in ICR mouse at 10 mg/kg, po
Type: ADME, organism-based
Design: dose 10 mg/kg, route oral
CONDITION_CONTEXT: in vivo
ASSAY_METRIC: Cmax (ng/mL)

compound="C(=N\\OC1CN2CCC1CC2)/c1ccccc1OCc1ccccc1 (stereo unspecified)" unit_label=ng/mL assay_result=330

----------
ASSAY_NOTES: Metabolic stability in rat plasma at 0.5 ug/ml after 2 hrs by LC/MS analysis
Format: ADME, cell-free
CONDITION_CONTEXT: read-out: Stability
ASSAY_METRIC: remaining at 2 h, 0.5 ug/ml (%)

molecule="Clc1ccc(COc2ccccc2/C=N/OC2CCN(Cc3ccccc3)C2)cc1Cl (stereo unspecified)" unit_label=% assay_result=111

----------
ASSAY_NOTES: Tmax in Sprague-Dawley rat at 3 mg/kg, ip
Format: ADME, organism-based
Parameters: dose 3 mg/kg, route intraperitoneal
CONDITION_CONTEXT: in vivo
ASSAY_METRIC: Tmax

molecule="C(=N\\OC1CN2CCC1CC2)/c1ccccc1OCc1ccccc1 (stereo unspecified)" assay_result="25 min"

----------
ASSAY_NOTES: Clearance in Sprague-Dawley rat at 10 mg/kg, po
Type: ADME, organism-based
Design: dose 10 mg/kg, route oral
CONDITION_CONTEXT: in vivo
ASSAY_METRIC: CL/F (mL/min/kg)

compound="Clc1ccc(COc2ccccc2/C=N/OC2CCN(Cc3ccccc3)C2)cc1Cl (stereo unspecified)" assay_result=72.1

----------
ASSAY_NOTES: Ratio of drug uptake in brain to drug uptake in plasma in Sprague-Dawley rat at 10 mg/kg, iv
Type: ADME, organism-based
Set-up: dose 10 mg/kg, route intravenous
CONDITION_CONTEXT: read-out: BPR
ASSAY_METRIC: Kp

compound="Clc1ccc(COc2ccccc2/C=N/OC2CCN(Cc3ccccc3)C2)cc1Cl (stereo unspecified)" assay_metric=Kp assay_result=14.6

----------
ASSAY_NOTES: Cytotoxicity against mouse […] cells assessed as cell viability at 5 uM
Format: cell-based
CONDITION_CONTEXT: HT22 cells, read-out: Activity
Each item that follows carries a reported viability at 5 µM.
ASSAY_METRIC: viability at 5 µM

molecule="CN1CCC(O/N=C/c2ccccc2OCc2ccc(Cl)cc2Cl)C1 (centres undefined)" assay_result=90%
molecule="Fc1cccc(COc2ccccc2/C=N/OC2CCN(Cc3ccccc3)C2)c1 (centres undefined)" assay_result=74%
molecule="CN1CCCC(O/N=C/c2ccccc2OCc2cccc(F)c2)C1 (centres undefined)" assay_result=136%
molecule="CC(C)N1CCC(O/N=C/c2ccccc2OCc2cccc(F)c2)C1 (centres undefined)" assay_result=94%

----------
ASSAY_NOTES: AUClast in Sprague-Dawley rat at 10 mg/kg, po
Format: ADME, organism-based
Set-up: time 0 - last, dose 10 mg/kg, route oral
CONDITION_CONTEXT: plasma
ASSAY_METRIC: AUC(0-t) (ng·h/mL)

compound="Clc1ccc(COc2ccccc2/C=N/OC2CCN(Cc3ccccc3)C2)cc1Cl (stereo unspecified)" unit_label=ng·h/mL assay_result=1960
